molecular target: CTLA-4 (human); assay: flow cytometry, cells expressing CTLA-4
Sequence (chain, as listed by the source): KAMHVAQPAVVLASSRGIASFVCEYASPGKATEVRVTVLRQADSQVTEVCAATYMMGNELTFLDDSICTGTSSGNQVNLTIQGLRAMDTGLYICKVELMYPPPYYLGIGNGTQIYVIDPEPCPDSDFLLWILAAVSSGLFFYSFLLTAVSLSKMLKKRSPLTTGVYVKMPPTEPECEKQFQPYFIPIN
Listed next: entries and their corresponding parental ratio.

binder="variant CD80 V4M/L70Q/A91G/I118V/T120S/T130A/K169E (Fc fusion) VIHMTKEVKEVATLSCGHNVSVEELAQTRIYWQKEKKMVLTMMSGDMNIWPEYKNRTIFDITNNLSIVIQALRPSDEGTYECVVLKYEKDGFKREHLAEVTLSVKADFPTPSISDFEVPSSNIRRIICSASGGFPEPHLSWLENGEELNAINTTVSQDPETELYAVSSELDFNMTTNHSFMCLIKYGHLRVNQTFNWNTTKQEHFPDN" assay_readout="parental ratio" value=1.26
binder="variant CD80 K37E/F59S/L70Q/A91G/T120S/T130A (Fc fusion) VIHVTKEVKEVATLSCGHNVSVEELAQTRIYWQKEKEMVLTMMSGDMNIWPEYKNRTISDITNNLSIVIQALRPSDEGTYECVVLKYEKDGFKREHLAEVTLSVKADFPTPSISDFEIPSSNIRRIICSASGGFPEPHLSWLENGEELNAINTTVSQDPETELYAVSSKLDFNMTTNHSFMCLIKYGHLRVNQTFNWNTTKQEHFPDN" assay_readout="parental ratio" value=0.36
binder="variant CD80 S44P/L70Q/A91G/T130A (Fc fusion) VIHVTKEVKEVATLSCGHNVSVEELAQTRIYWQKEKKMVLTMMPGDMNIWPEYKNRTIFDITNNLSIVIQALRPSDEGTYECVVLKYEKDGFKREHLAEVTLSVKADFPTPSISDFEIPTSNIRRIICSASGGFPEPHLSWLENGEELNAINTTVSQDPETELYAVSSKLDFNMTTNHSFMCLIKYGHLRVNQTFNWNTTKQEHFPDN" assay_readout="parental ratio" value=0.64
binder="variant CD80 A12V/S15F/Y31H/M38L/T41G/M43L/D90N/T130A/P137L/N149D/N152T (Fc fusion) VIHVTKEVKEVVTLFCGHNVSVEELAQTRIHWQKEKKLVLGMLSGDMNIWPEYKNRTIFDITNNLSIVILALRPSDEGTYECVVLKYEKNAFKREHLAEVTLSVKADFPTPSISDFEIPTSNIRRIICSASGGFPELHLSWLENGEELDAITTTVSQDPETELYAVSSKLDFNMTTNHSFMCLIKYGHLRVNQTFNWNTTKQEHFPDN" assay_readout="parental ratio" value=0.03
binder="variant CD80 L70Q/A91G/T110A/I118V/T120S/T130A (Fc fusion) VIHVTKEVKEVATLSCGHNVSVEELAQTRIYWQKEKKMVLTMMSGDMNIWPEYKNRTIFDITNNLSIVIQALRPSDEGTYECVVLKYEKDGFKREHLAEVTLSVKADFPAPSISDFEVPSSNIRRIICSASGGFPEPHLSWLENGEELNAINTTVSQDPETELYAVSSKLDFNMTTNHSFMCLIKYGHLRVNQTFNWNTTKQEHFPDN" assay_readout="parental ratio" value=0.07

(Q) State the recorded parental ratio for this entry: variant CD80 A91G/F92L/F108L/I118V/T120S (Fc fusion) VIHVTKEVKEVATLSCGHNVSVEELAQTRIYWQKEKKMVLTMMSGDMNIWPEYKNRTIFDITNNLSIVILALRPSDEGTYECVVLKYEKDGLKREHLAEVTLSVKADLPTPSISDFEVPSSNIRRIICSTSGGFPEPHLSWLENGEELNAINTTVSQDPETELYAVSSKLDFNMTTNHSFMCLIKYGHLRVNQTFNWNTTKQEHFPDN
(A) 0.61

(Q) Which parental ratio value belongs to variant CD80 R29V/M43Q/E81R/L85I/K89R/D90L/A91E/F92N/K93Q/R94G (Fc fusion) VIHVTKEVKEVATLSCGHNVSVEELAQTVIYWQKEKKMVLTMQSGDMNIWPEYKNRTIFDITNNLSIVILALRPSDEGTYRCVVIKYERLENQGEHLAEVTLSVKADFPTPSISDFEIPTSNIRRIICSTSGGFPEPHLSWLENGEELNAINTTVSQDPETELYAVSSKLDFNMTTNHSFMCLIKYGHLRVNQTFNWNTTKQEHFPDN ?
(A) 0.02

(Q) Item under review: variant CD80 E24G/R29D/Y31L/Q33H/K36G/M38I/T41A/M43R/M47T/F59L/E81V/L85R/K89N/A91T/F92P/K93V/R94L/H96R/N149S/C182S (Fc fusion) VIHVTKEVKEVATLSCGHNVSVEGLAQTDILWHKEGKIVLAMRSGDTNIWPEYKNRTILDITNNLSIVILALRPSDEGTYVCVVRKYENDTPVLERLAEVTLSVKADFPTPSISDFEIPTSNIRRIICSTSGGFPEPHLSWLENGEELSAINTTVSQDPETELYAVSSKLDFNMTTNHSFMSLIKYGHLRVNQTFNWNTTKQEHFPDN . Reported parental ratio?
(A) 0.02
